What self-cleavage was measured for each of the following?
B1: Hairpin Ribozyme (parent)
chain: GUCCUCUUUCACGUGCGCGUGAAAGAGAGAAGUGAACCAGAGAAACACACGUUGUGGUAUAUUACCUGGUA

- Variants of: B1
- PROCEDURE_DETAILS: self-cleavage, relative activity (ratio to wild type); higher = more cleavage; co-transcriptional
The answer should be written as a number, with no unit following it.

Recall and state the measured self-cleavage for U14C U53C .
0.675

Recall and state the measured self-cleavage for U63A A64U .
0.198

Recall and state the measured self-cleavage for A30G A59C .
0.0815

Recall and state the measured self-cleavage for A36U U67C .
0.133

Recall and state the measured self-cleavage for U20C U58A .
0.673

Recall and state the measured self-cleavage for G13U G27C .
0.19

Recall and state the measured self-cleavage for U33G G56U .
0.244

Recall and state the measured self-cleavage for C12A A47G .
0.0872

Recall and state the measured self-cleavage for C37G U60C .
0.331

Recall and state the measured self-cleavage for C6A A47G .
0.157

Recall and state the measured self-cleavage for G19C A59G .
0.153

Recall and state the measured self-cleavage for A64C G69C .
0.129

Recall and state the measured self-cleavage for U52A G68U .
0.309

Recall and state the measured self-cleavage for G27A A39U .
0.166

Recall and state the measured self-cleavage for C46G U63C .
0.103

Recall and state the measured self-cleavage for C38U A45C .
0.108

Recall and state the measured self-cleavage for G27C C38U .
0.131

Recall and state the measured self-cleavage for U52C U60A .
1.14

Recall and state the measured self-cleavage for G34U U70A .
1.43

Recall and state the measured self-cleavage for G17A A59G .
0.205

Recall and state the measured self-cleavage for G42C C48A .
0.134

Recall and state the measured self-cleavage for A59C C65A .
0.0683
